Measured % Dead values are reported for all entries that follow.
test system: isobutanologen; test: Automated primary screen for solvent biocompatibility (96 well plate, propidium iodide dead-cell fluorescence); assay type: cell-based; settings: propidium iodide signal; 1 h exposure, 1:1 aq:org, room temperature
Give a bare numeral; the unit % is implied.

Use these answered entries as a reference point.
Molecule | % Dead, %
CCCCC(CC)COC(C)=O (stereo not shown) [2-ethyl hexyl acetate] | 3
CC(C)CC(=O)CC(C)C | 5
CCCCC(CC)COCCO (stereo not shown) | 79

Continue with the next molecule.
Ask: Param readout= % Dead; system= isobutanologen; entry= `CCOC(C)(C)C` ; returns value.
Reply: 6

* * *

Here, each record is paired with measured iBuOH data.
system: isobutanologen; test: Secondary screen for solvent biocompatibility (shake flask; Cellometer viability, glucose, isobutanol); settings: 30 Hours, 30° C.
Express the result in g/L but write the number alone.

Please review the entries below; each comes with its answer.
Compound | iBuOH [g/L]
CCCCOC(C)=O [n-butyl acetate] | 0.0
Cc1cccc2cccnc12 | 0.0
CCCCCCCCCCCC | 1.9
CCCCCCCCCCC | 1.9
CCCCCCCCCCCC=O | 0.0
CCCCCCCC/C=C\CCCCCCCCO [oleyl alcohol, reference compound] | 2.2
CCCCC(CC)CO (centres unmarked) [2-ethyl-1-hexanol, reference compound] | 0.0

In the following, a different compound is considered.
Ask: # lookup: iBuOH of `CCCCCCCCOCCCCCCCC`
Reply: 1.9

* * *

assay: Secondary screen for solvent biocompatibility (shake flask; Cellometer viability, glucose, isobutanol); conditions: yeast (isobutanologen)
compounds and their reported viability at 5 h
The reply should contain only the number, in %.

Look over these answered cases.
Compound | Unit Of Measurement | viability at 5 h
CCCCCCCCOCCCCCCCC | % | 99
CCCCCCCCCCCC | % | 99
CCCCCCCCCCC | % | 98

Ask: Any idea what its viability at 5 h is? The compound is `CCCCCCCCCCCC=O`
Reply: 78

Ask: Quick check: viability at 5 h of CCCCOC(C)=O [n-butyl acetate] ?
Reply: 46

Ask: What value of viability at 5 h has been reported for the following compound? CCCCCCCC/C=C\CCCCCCCCO [oleyl alcohol, reference compound]
Reply: 100

Ask: Item under review: CCCCC(CC)CO (stereo not shown) [2-ethyl-1-hexanol, reference compound] . Reported viability at 5 h?
Reply: 58

* * *

test: Secondary screen for solvent biocompatibility (shake flask; Cellometer viability, glucose, isobutanol); conditions: yeast (isobutanologen)
Measured Property: viability at 30 h (%)
Kindly provide the numeric value in % only, without the unit symbol.

Molecule | Unit Of Measurement | viability at 30 h
CCCCOC(C)=O [n-butyl acetate] | % | 35

Ask: GET /values?readout=viability at 30 h&item= CCCCCCCCOCCCCCCCC [di-n-octyl ether]
Reply: 99

Ask: Given the molecule CCCCCCCCCCC [n-undecane] , what is its reported viability at 30 h?
Reply: 100

Ask: Which viability at 30 h value belongs to Cc1cccc2cccnc12 [8-methylquinoline] ?
Reply: 47

Ask: What value of viability at 30 h has been reported for the following molecule? CCCCC(CC)CO (centres unmarked) [2-ethyl-1-hexanol, reference compound]
Reply: 47

Ask: I would be grateful if you could share the reported viability at 30 h for CCCCCCCCCCCC=O [dodecanal] .
Reply: 62

Ask: Can you look up the measured viability at 30 h of CCCCCCCCCCCC [dodecane] for me?
Reply: 99

Ask: // query viability at 30 h value for entry CCCCCCCC/C=C\CCCCCCCCO [oleyl alcohol, reference compound]
Reply: 100

* * *

Each item that follows carries a reported viability at 25 h.
assay: Secondary screen for solvent biocompatibility (shake flask; Cellometer viability, glucose, isobutanol); conditions: yeast (isobutanologen)
Could you give me the number in %? Just the number is fine.

The examples below pair each entry with its known result.
Compound | Unit Of Measurement | viability at 25 h
CCCCCCOCCCCCC | % | 62
CCCCC(CC)CO (stereo not drawn) [2-ethyl-1-hexanol, reference compound] | % | 6
CCCCOCCOCCCC | % | 8

Ask: # get_value(readout='viability at 25 h', item= `CC(C)CC(C)(C)C` )
Reply: 31

Ask: Would you mind telling me what viability at 25 h value was observed for `CCCCCCCCCC` ?
Reply: 54

Ask: Any idea what viability at 25 h was measured for `CC(C)CC(O)CC(C)C` ?
Reply: 8

Ask: Entry under review: CCCCCCCCCCCC(=O)OC [methyl laurate] . Reported viability at 25 h?
Reply: 94

Ask: Given CCCCCCCC/C=C\CCCCCCCCO [oleyl alcohol, reference compound] , state its recorded viability at 25 h.
Reply: 100

Ask: # viability at 25 h lookup, item `Cc1cc(C)cc(C)c1`
Reply: 17

* * *

test: Secondary screen for solvent biocompatibility (shake flask; Cellometer viability, glucose, isobutanol); conditions: yeast (isobutanologen)
Recorded viability at 4 h for the following compounds
Use % as the unit, but write only the number.

Observe how each entry below is paired with its result.
Compound | Unit Of Measurement | Data Value
CCCCCCOC(C)=O [n-hexyl acetate] | % | 18
CC(C)CC(O)CC(C)C | % | 42
CCCCOCCOCCCC | % | 63

Ask: Would you mind telling me what viability at 4 h value was observed for `CCCCCCOCCCCCC` ?
Reply: 106

* * *

experiment: Secondary screen for solvent biocompatibility (shake flask; Cellometer viability, glucose, isobutanol); details: yeast (isobutanologen)
Measured Property: viability at 25 h (%)
Numbers only here, please. The scale is %.

Compound | Unit Of Measurement | Data Value
C1CCC2CCCCC2C1 (stereo not drawn) [decalin] | % | 36
CCCCCCOC(C)=O [n-hexyl acetate] | % | 3

Could you now look at the following compound, please?
Ask: Endpoint output: viability at 25 h of CCCCOC(=O)CCC [n-butyl n-butyrate] . Value?
Reply: 7

* * *

experiment: Secondary screen for solvent biocompatibility (shake flask; Cellometer viability, glucose, isobutanol); conditions: yeast (isobutanologen)
Measured Property: viability at 4 h (%)
Please respond with the number in % and leave the unit unwritten.

As a guide, the following entries are already answered.
Compound | viability at 4 h [%]
C1CCC2CCCCC2C1 (centres unmarked) | 76
CCCCC(CC)CO (centres unmarked) [2-ethyl-1-hexanol, reference compound] | 14
CCCCCCCCCC | 107
Cc1cc(C)cc(C)c1 | 64

Ask: Which viability at 4 h value belongs to CCCCCCCC/C=C\CCCCCCCCO [oleyl alcohol, reference compound] ?
Reply: 100

Ask: Can you share its viability at 4 h? I mean this compound: `CC(C)CC(C)(C)C`
Reply: 90

Ask: Any idea what its viability at 4 h is? The compound is CCCCCCCCCCCC(=O)OC [methyl laurate]
Reply: 110

Ask: Any idea what its viability at 4 h is? The compound is CCCCOC(=O)CCC [n-butyl n-butyrate]
Reply: 48

Origin of the recorded values: patent US9517985B2
